Where these numbers come from: patent US20130302282A1

test system: 1b_Huh-Luc/Neo-ET cell line (bicistronic genotype 1b replicon in Huh 7 cells); assay: HCV 1b replicon assay, luciferase readout; format: cell-based, HCV genotype 1b; conditions: Hepatitis C virus, Huh-7, class symbol; HCV genotype 1b replicon; read-out: Inhibition of HCV genotype 1b replicon
readout_label: EC50

Examples from the recorded data:
1. [2H]C([2H])([2H])NC(=O)c1c(-c2ccc(Oc3ccc(F)cc3)cc2)oc2cc3c(cc12)C(C)N(C)CCN3S(C)(=O)=O (stereo not drawn) [Compound B160] = 10 to 100 nM
2. CNC(=O)c1c(-c2ccc(F)cc2)oc2cc3c(cc12)CCCCCCN3S(C)(=O)=O [Compound B19] = 10 to 100 nM

Proceeding to the next molecule to report its EC50.
Exercise: Can you look up the measured EC50 of CNC(=O)c1c(-c2ccc(Oc3ccc(F)cc3)cc2)oc2cc3c(cc12)[C@H](C)n1nncc1CN3S(C)(=O)=O (single isomer, unassigned) [Compound B163] for me?
Key: < 10 nM

---

Could you please report measured EC50 for the items listed next?
system: 1b_Huh-Luc/Neo-ET cell line (bicistronic genotype 1b replicon in Huh 7 cells); test: HCV 1b replicon assay, luciferase readout; assay type: cell-based, HCV genotype 1b; conditions: class symbol; HCV genotype 1b replicon; read-out: Inhibition of HCV genotype 1b replicon

Examples from the recorded data:
1. CNC(=O)c1c(-c2ccc(Oc3ccc(F)cc3)cc2)oc2cc3c(cc12)C(C)OC(CO)CN3S(C)(=O)=O (stereo not drawn) [Compound B191] = < 10 nM
2. CNC(=O)c1c(-c2ccc(Oc3ccc(F)cc3)cc2)oc2cc3c(cc12)[C@H](C)O[C@H](CS(C)(=O)=O)CN3S(C)(=O)=O [Compound B216] = 10 to 100 nM

Proceeding to the next compound to report its EC50.
Exercise: Can you look up the measured EC50 of CNC(=O)c1c(-c2ccc(F)cc2)oc2cc3c(cc12)[C@H](C)O[C@H](CS(C)(=O)=O)CN3S(C)(=O)=O [Compound B215] for me?
Key: 10 to 100 nM

---

Could you please report measured EC50 for the items listed next?
system: 1b_Huh-Luc/Neo-ET cell line (bicistronic genotype 1b replicon in Huh 7 cells); test: HCV 1b replicon assay, luciferase readout; type: cell-based, HCV genotype 1b; conditions: Hepatitis C virus, Huh-7, class symbol; HCV genotype 1b replicon; read-out: Inhibition of HCV genotype 1b replicon

Report EC50 for each item below.
1. CNC(=O)c1c(-c2ccc(F)cc2)oc2cc3c(cc12)[C@@H](C)OC(C)(C)CN3S(C)(=O)=O (single isomer, unassigned)
2. CNC(=O)c1c(-c2ccc(F)cc2)oc2cc3c(cc12)C(C)N([C@H](C)c1ccc(F)cc1)CCN3S(C)(=O)=O (stereo partly drawn)
3. CNC(=O)c1c(-c2ccc(F)cc2)oc2cc3c(cc12)[C@@H](C)N(C)C(=O)CN3S(C)(=O)=O (single isomer, unassigned)
4. CNC(=O)c1c(-c2ccc(F)cc2)oc2cc3c(cc12)C(C)O[C@@H](c1ccc(F)cc1)CN3S(C)(=O)=O (stereo partly drawn)
5. CNC(=O)c1c(-c2ccc(F)cc2)oc2cc3c(cc12)[C@@H](C)NC(=O)CN3S(C)(=O)=O (single isomer, unassigned)
6. CNC(=O)c1c(-c2ccc(Oc3cccc(F)c3)cc2)nn2cc3c(cc12)C(C)CCCN3S(C)(=O)=O (stereo not drawn)
7. CNC(=O)c1c(-c2ccc(F)cc2)oc2cc3c(cc12)C(C)N(CCS(C)(=O)=O)CCN3S(C)(=O)=O (stereo not drawn)

Key:
["> 1000 nM", "10 to 100 nM", "10 to 100 nM", "10 to 100 nM", "100 to 1000 nM", "10 to 100 nM", "10 to 100 nM"]

Report EC50 for each item below.
1. CNC(=O)c1c(-c2ccc(Oc3ccc(F)cc3)cc2)oc2cc3c(cc12)[C@H](C)O[C@H](COC(=O)[C@@H](N)C(C)C)CN3S(C)(=O)=O
2. CNC(=O)c1c(-c2ccc(F)cc2)oc2cc3c(cc12)C(C)N(CCO)CCN3S(C)(=O)=O (stereo not drawn)

Key:
1. < 10 nM
2. < 10 nM
